Measured KD ratio to GLS3000 of individual entries
target: T1, CD3 epsilon homodimer protein (UniProt P07766 23-126); assay: SPR, antibody over immobilised CD3e homodimer;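 note: SPR at 25 °C with CD3 epsilon homodimer amine-coupled to a CM4 sensor chip and antibody flowed over as analyte in HBS-EP+ running buffer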
T1 construct: also called CD3 (CD3 epsilon)
T1 sequence (P07766 23-126): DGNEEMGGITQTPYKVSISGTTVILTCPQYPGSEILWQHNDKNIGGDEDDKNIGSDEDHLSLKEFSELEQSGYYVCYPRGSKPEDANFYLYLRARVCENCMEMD

input: I am curious: what KD ratio to GLS3000 value has been reported for CE115HA000/GLS3000 N30H (antibody, IgG1, name in Kabat numbering, V domains shown, one-arm IgG1) VH: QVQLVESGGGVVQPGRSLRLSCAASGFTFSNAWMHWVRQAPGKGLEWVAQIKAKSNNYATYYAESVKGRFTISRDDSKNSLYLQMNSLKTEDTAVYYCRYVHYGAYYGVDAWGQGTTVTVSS VL: DIVMTQSPLSLPVTPGEPASISCRSSQSLVHSNRHTYLHWYQQKPGQAPRLLIYKVSNRFSGVPDRFSGSGSGTDFTLKISRVEAEDVGVYYCGQGTQVPYTFGQGTKLEIK ?
output: 1.08

input: I am curious: what KD ratio to GLS3000 value has been reported for CE115HA000/GLS3000 G91E (antibody, IgG1, name in Kabat numbering, V domains shown, one-arm IgG1) VH: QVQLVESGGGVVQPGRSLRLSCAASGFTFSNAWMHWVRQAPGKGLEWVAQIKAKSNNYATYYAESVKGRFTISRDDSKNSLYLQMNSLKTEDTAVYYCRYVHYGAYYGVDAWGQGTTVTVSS VL: DIVMTQSPLSLPVTPGEPASISCRSSQSLVHSNRNTYLHWYQQKPGQAPRLLIYKVSNRFSGVPDRFSGSGSGTDFTLKISRVEAEDVGVYYCGQETQVPYTFGQGTKLEIK ?
output: 48.5

input: I am curious: what KD ratio to GLS3000 value has been reported for CE115HA000/GLS3000 F55R (antibody, IgG1, name in Kabat numbering, V domains shown, one-arm IgG1) VH: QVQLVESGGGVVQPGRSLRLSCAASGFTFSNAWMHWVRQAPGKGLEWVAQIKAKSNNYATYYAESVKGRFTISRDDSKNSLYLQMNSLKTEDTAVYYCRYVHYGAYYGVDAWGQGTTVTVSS VL: DIVMTQSPLSLPVTPGEPASISCRSSQSLVHSNRNTYLHWYQQKPGQAPRLLIYKVSNRRSGVPDRFSGSGSGTDFTLKISRVEAEDVGVYYCGQGTQVPYTFGQGTKLEIK ?
output: 1.27
